System: MDA-N
EXPERIMENT_NOTES: NCI tumour cell line growth inhibition, 48 h
Consider the following compounds and their measured TGI readings.
Provide only the numeric value, understood in µM.

The cases that follow already have their TGI on record.
{"COMPOUND": "Cc1ccc(C)c(C2NC(=O)c3ccccc3N2)c1 (configuration not stated)", "TGI [µM]": 0.319}
{"COMPOUND": "COc1cccc(C2c3cc4c(cc3OC(N3CCCC3)C2C)OCO4)c1O (configuration not stated)", "TGI [µM]": 4.38}

Now for another entry.
query: Report TGI for S=C(c1c[nH]c2ccccc12)N1CCN(Cc2ccccc2)CC1
result: 29.7
